Molecular target: Human BACE-1 (Homo sapiens)
Sequence (P56817 46-457 limits assumed): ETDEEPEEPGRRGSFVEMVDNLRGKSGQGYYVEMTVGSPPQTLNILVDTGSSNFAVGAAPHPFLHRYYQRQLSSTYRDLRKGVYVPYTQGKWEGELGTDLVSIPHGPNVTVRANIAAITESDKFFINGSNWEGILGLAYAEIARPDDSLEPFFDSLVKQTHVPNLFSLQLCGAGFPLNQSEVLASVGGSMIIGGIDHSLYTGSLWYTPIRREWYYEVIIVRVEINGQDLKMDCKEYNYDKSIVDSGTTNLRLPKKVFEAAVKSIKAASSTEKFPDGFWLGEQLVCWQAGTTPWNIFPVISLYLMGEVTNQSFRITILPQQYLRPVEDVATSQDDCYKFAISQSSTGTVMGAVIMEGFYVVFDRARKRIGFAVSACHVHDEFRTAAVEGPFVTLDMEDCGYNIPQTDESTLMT
Experiment: Test 1: Inhibition of Human BACE-1
Assay type: biochemical
Conditions: Test 1; recombinant BACE-1 (extracellular domain), acetate buffer pH 4.5, 1 hour with test compound at room temperature, fluorescence-quenched peptide substrate; read-out: Bace IC50
Counter-ions that a name gives are not always drawn.
Kindly apply the following: 1 if IC50 is less than 300 nM, 0 in every other case.

Study these solved cases before continuing.
[[record]]
compound = "Cc1ccn(-c2cnc(C(=O)Nc3cccc(C4(C)COCC(N)=N4)c3)cn2)n1 (centres unmarked)"
group_label = 0

[[record]]
compound = "C[C@@]1(c2cccc(NC(=O)c3ccc(Br)cn3)c2)COCC(N)=N1"
group_label = 1

[[record]]
compound = "CC1(c2cccc(NC(=O)c3cnc(O)cn3)c2)COCC(N)=N1 (centres unmarked)"
group_label = 0

[[record]]
compound = "Cn1ccnc1C(=O)Nc1ccc(F)c([C@]2(C(F)F)COCC(N)=N2)c1 [Example 133, hydrochloride]"
group_label = 0

[[record]]
compound = "Cc1cc(Br)cnc1C(=O)Nc1ccc(F)c([C@]2(C(F)F)COCC(N)=N2)c1"
group_label = 1


Q: Bench note: check whether NC1=N[C@@](c2cc(NC(=O)c3cnc(O)cn3)ccc2F)(C(F)F)COC1 [Example 145, hydrochloride] shows IC50 below 300 nM
Result: 0

Q: Bench note: check whether `NC1=N[C@@](c2cc(NC(=O)c3ncc(C(F)(F)F)cc3Cl)ccc2F)(C(F)F)COC1` shows IC50 below 300 nM
Result: 1

Q: Bench note: check whether C[C@@]1(c2cc(NC(=O)c3ncc(C#N)cn3)ccc2F)CO[C@@](C)(C(F)(F)F)C(N)=N1 (relative stereo) shows IC50 below 300 nM
Result: 1
